Every entry's value here was drawn from the METLIN SMRT retention time set (Domingo-Almenara et al. 2019).

- method notes: gradient 5% acetonitrile 3 min, to 50% in 2 min, to 85% in 15 min, held 3 min, 100 µL/min
- measurement context: column: Zorbax Extend-C18 2.1 x 50 mm; eluents: water / acetonitrile, 0.1% formic acid
Threshold 1000 s. RP-LC retention time below it: fulfilled. RP-LC retention time at it or above: not fulfilled.

query: Decide: RP-LC retention time of Cc1ccc(-c2cn3cccnc3n2)cc1NC(=O)c1ccc(Br)cc1 strictly below 1000 s?
result: fulfilled

query: Decide: RP-LC retention time of O=C(CSc1nc(-c2ccccc2)ns1)OCc1ccccc1 strictly below 1000 s?
result: not fulfilled

query: Decide: RP-LC retention time of COc1cc(Nc2nc(C(=O)N3CCOCC3)cc3occc23)cc(OC)c1OC strictly below 1000 s?
result: fulfilled

====

- method notes: gradient 5% acetonitrile 3 min, to 50% in 2 min, to 85% in 15 min, held 3 min, 100 µL/min
- measurement context: column: Zorbax Extend-C18 2.1 x 50 mm; eluents: water / acetonitrile, 0.1% formic acid
measured property: RP-LC retention time (s)
Lab book: enter the figure in s, no units written.

- compound: "CCOc1ccc(S(=O)(=O)N2CCc3c(c(-c4nnc(SCC)n4CC)nn3C)C2)cc1"
  u: "s"
  RP-LC retention time: 961

query: Query (compound): CCOC(=O)c1c(S(=O)(=O)N2CCC(C(=O)Nc3ccc(CC)cc3)CC2)c(C)n(C)c1C ; field requested: RP-LC retention time
result: 943

query: Query (compound): CCC(C)NC(=O)c1c(C)sc2ccn(C)c(=O)c12 (stereo not given) ; field requested: RP-LC retention time
result: 654

query: Query (compound): CCCCCC(=O)C(=O)c1ccc(O)cc1O ; field requested: RP-LC retention time
result: 819

query: Query (compound): O=C1c2ccc(O)cc2O[C@H](c2cc(O)c(O)c(O)c2)[C@H]1O ; field requested: RP-LC retention time
result: 617

====

- method notes: gradient 5% acetonitrile 3 min, to 50% in 2 min, to 85% in 15 min, held 3 min, 100 µL/min
- measurement context: column: Zorbax Extend-C18 2.1 x 50 mm; eluents: water / acetonitrile, 0.1% formic acid
The following compounds are shown together with reported RP-LC retention time values.
Please append the unit to your numeric answer.

Example compounds with recorded RP-LC retention time:
- compound: "COc1ccc(NC(=O)C2CCCCC2)c2ccccc12"
  observed value: "861 s"
- compound: "CC(=O)N1CCc2nn(CC(=O)Nc3ccc(Cl)cc3F)c(=O)cc2C1"
  observed value: "663 s"
- compound: "O=C(COc1ccc(Cl)cc1)NCC1(c2ccc(F)cc2)CC1"
  observed value: "988 s"

query: Query (compound): CCOC(=O)Cc1csc2nc(-c3ccccc3)nn12 ; field requested: RP-LC retention time
result: 960 s

query: Query (compound): Cc1ccc(CNS(=O)(=O)c2cc(-c3cc(C(F)(F)F)[nH]n3)sc2C)o1 ; field requested: RP-LC retention time
result: 964 s

query: Query (compound): COC(=O)c1cc(C2CC2)nc2c1c(=O)n(Cc1ccccc1F)c(=O)n2C ; field requested: RP-LC retention time
result: 1080 s

query: Query (compound): Cc1ccc(C)c(Cn2nc(-c3nc(C(C)(C)C)no3)ccc2=O)c1 ; field requested: RP-LC retention time
result: 1170 s

query: Query (compound): CC(C)S(=O)(=O)c1cc2c(cc1NC(=O)c1c(F)cccc1F)n(C)c(=O)n2C ; field requested: RP-LC retention time
result: 792 s

query: Query (compound): COc1ccc(Br)cc1CNC(=O)c1sc2ncccc2c1-n1cccc1 ; field requested: RP-LC retention time
result: 1130 s

query: Query (compound): COC(=O)CSc1nnc(CNC(=O)c2ccccc2F)n1Cc1ccccc1 ; field requested: RP-LC retention time
result: 683 s

query: Query (compound): Cc1cc(C(=O)Nc2ccc(N3CCOCC3)cc2)nc2cc(-c3ccccn3)nn12 ; field requested: RP-LC retention time
result: 802 s

query: Query (compound): CCc1nc(-n2cccc2)sc1C(=O)Nc1cccc(C)c1 ; field requested: RP-LC retention time
result: 1150 s

====

- method notes: gradient 5% acetonitrile 3 min, to 50% in 2 min, to 85% in 15 min, held 3 min, 100 µL/min
- measurement context: column: Zorbax Extend-C18 2.1 x 50 mm; eluents: water / acetonitrile, 0.1% formic acid
The following molecules are shown together with reported RP-LC retention time values.

- molecule: "CCN(CC)C(=O)C1Cn2cccc2C(=O)N1C (stereo not given)"
  observed value: "606 s"

query: Query (molecule): Cc1nn2c(CNC(=O)c3ccc(F)cc3)c(-c3ccccc3)nc2s1 ; field requested: RP-LC retention time
result: 840 s

query: Query (molecule): CCOC(=O)c1ccccc1NC(=O)N(Cc1cccs1)C1CCN(CC)CC1 ; field requested: RP-LC retention time
result: 756 s

query: Query (molecule): COc1cccc(NC(=O)C2CCN(S(=O)(=O)c3ccc4c(c3)sc(=O)n4C)CC2)c1 ; field requested: RP-LC retention time
result: 845 s

query: Query (molecule): O=C(c1ccncc1)N1CCCCC1c1nc(-c2ccncc2)no1 (stereo not given) ; field requested: RP-LC retention time
result: 689 s

query: Query (molecule): CCN1C(=O)C(CC(=O)NC(C)c2ccccc2)Sc2ncccc21 (stereo not given) ; field requested: RP-LC retention time
result: 751 s

query: Query (molecule): CC(=O)Nc1ccc(OCc2cc(C(=O)NC3CCC(C)CC3)no2)cc1 (stereo not given) ; field requested: RP-LC retention time
result: 860 s

query: Query (molecule): COCCCNC(=O)CCc1nnc2ccc(-c3ccc(C)c(C)c3)nn12 ; field requested: RP-LC retention time
result: 718 s

query: Query (molecule): Cn1nccc1-c1cccc(-c2noc(-c3ccc(F)c(F)c3)n2)c1 ; field requested: RP-LC retention time
result: 1170 s

query: Query (molecule): COc1cccc(-c2noc(C3CCCN3C(=O)Nc3cccc(C#N)c3)n2)c1 (stereo not given) ; field requested: RP-LC retention time
result: 927 s

====

- method notes: gradient 5% acetonitrile 3 min, to 50% in 2 min, to 85% in 15 min, held 3 min, 100 µL/min
- measurement context: column: Zorbax Extend-C18 2.1 x 50 mm; eluents: water / acetonitrile, 0.1% formic acid
Threshold 900 s. RP-LC retention time below it: 1. RP-LC retention time at it or above: 0.

Example entries begin here.
- molecule: "Cc1nnc(-c2ccc3ccn(CC(=O)N4CCCCC4)c3c2)o1"
  qualitative label: 1
- molecule: "CCOc1ccc2nc(NC(=O)c3ccc(N4CCCC4)nn3)sc2c1"
  qualitative label: 1
- molecule: "O=S(=O)(NC1CCCCC1)c1ccccc1-c1nc(-c2ccccc2)no1"
  qualitative label: 0
- molecule: "COc1ccc(C(CNC(=O)c2cc(=O)c3cc(C)cc(C)c3o2)N(C)C)cc1 (stereo not drawn)"
  qualitative label: 1
- molecule: "COC1CN(c2cccc(F)c2)C12CCN(S(=O)(=O)Cc1ccccc1F)CC2 (stereo not drawn)"
  qualitative label: 0

Please examine the following record next.
query: Decide: RP-LC retention time of COc1cc(-c2nc3ncccn3c2Nc2ccc(C)cc2C)ccc1O strictly below 900 s?
result: 1

====

- method notes: gradient 5% acetonitrile 3 min, to 50% in 2 min, to 85% in 15 min, held 3 min, 100 µL/min
- measurement context: column: Zorbax Extend-C18 2.1 x 50 mm; eluents: water / acetonitrile, 0.1% formic acid
The following compounds are shown together with reported RP-LC retention time values.
Lab book: enter the figure in s, no units written.

Example compounds with recorded RP-LC retention time:
- compound: "CNC(=O)C1CCCN(c2nc3ncn(CC(=O)Nc4ccc(C(C)C)cc4)c(=O)c3s2)C1 (stereo not given)"
  observed value: 731
- compound: "COc1cccc(-c2nc(C3CCN(S(=O)(=O)c4cc(C)ccc4C)CC3)no2)c1"
  observed value: 1210
- compound: "O=C1CC(c2noc(-c3ccc(F)cc3)n2)CN1c1ccc(F)cc1 (stereo not given)"
  observed value: 961
- compound: "CCc1cc(C(=O)Nc2ccc(Cl)cc2)nc2ccnn12"
  observed value: 1080
- compound: "COc1ccc(OCC(=O)NS(=O)(=O)c2ccccc2)cc1"
  observed value: 745

query: Query (compound): COc1cc(-c2cc(C(=O)O)c3cc4c(cc3n2)OCCO4)cc(OC)c1OC ; field requested: RP-LC retention time
result: 676

query: Query (compound): Cc1cc2nnc(SCC(=O)c3cc(C)n(CC4CCCO4)c3C)n2c2ccccc12 (stereo not given) ; field requested: RP-LC retention time
result: 784

query: Query (compound): C=C1C[C@@]23CC[C@H]4[C@@](C)(CCC[C@@]4(C)C(=O)O)[C@@H]2CC[C@]1(O)C3 ; field requested: RP-LC retention time
result: 1030

query: Query (compound): Cc1noc2ncn(CC(=O)NCc3cccc(Br)c3)c(=O)c12 ; field requested: RP-LC retention time
result: 779

query: Query (compound): Cc1cc(C(=O)NC2CCCC2)nc2cc(-c3cccs3)nn12 ; field requested: RP-LC retention time
result: 655
